Origin of values: patent US20050054582A1

Listing of entries alongside the reported melting point.

Cc1ccccc1NC(=O)Nc1ccc(CC(=O)NC2CCN(c3ccc(C(=O)O)cc3)C2)cc1 (centres unmarked) [Example 50] : 239 to 242 °C
Cc1ccccc1NC(=O)Nc1ccc(CC(=O)NC(CC(C)C)C(=O)Nc2ccc(C(=O)O)cc2)cc1 (centres unmarked) [Example 37] : 219 to 223 °C
COCCCN(CC(=O)Nc1ccc(C(=O)O)cc1)C(=O)Cc1ccc(NC(=O)Nc2ccccc2C)cc1 [Example 38] : 210 to 218 °C
Cc1ccccc1NC(=O)Nc1ccc(CC(=O)NCC(=O)N(CC(C)C)c2ccc(C(=O)O)cc2)cc1 [Example 51] : 131 to 132 °C

Per the record, O=C(CN(CCc1cccc(Cl)c1)C(=O)Cc1ccc2nc(Nc3ccccc3)oc2c1)Nc1ccc(C(=O)O)cc1 [Example 78] has melting point of 162 to 165 °C
